These entries and their values trace back to patent US8211937B2.

test system: S. pneumoniae 157
Let's look at some compounds and their measured MIC.
Give a bare numeral; the unit µg/mL is implied.

CN(C)c1ccc(O)c2c1C[C@H]1C[C@H]3[C@H](N(C)C)C(=O)C(C(N)=O)=C(O)[C@@]3(O)C(=O)C1=C2O [MINO, Minocyline]	0.5
CN(C)[C@@H]1C(O)=C(C(N)=O)C(=O)[C@@]2(O)C(O)=C3C(=O)c4c(O)ccc(-n5ccc(C=O)c5)c4C[C@H]3C[C@@H]12 [Compound B]	0.015
CN(C)CC(=O)Nc1cc(-n2ccc(C=O)c2)c2c(c1O)C(=O)C1=C(O)[C@]3(O)C(=O)C(C(N)=O)=C(O)[C@@H](N(C)C)[C@@H]3C[C@@H]1C2 [Compound C]	0.015
CN(C)[C@@H]1C(O)=C(C(N)=O)C(=O)[C@@]2(O)C(O)=C3C(=O)c4c(O)ccc(-n5ccc(C#N)c5)c4C[C@H]3C[C@@H]12 [Compound A]	0.015

Write MIC of CN(C)c1cc(NC(=O)CNC(C)(C)C)c(O)c2c1C[C@H]1C[C@H]3[C@H](N(C)C)C(O)=C(C(N)=O)C(=O)[C@@]3(O)C(O)=C1C2=O [GAR-936] ; system used: S. pneumoniae 157
0.25

###

Notes on MIC obtained with E. faecium 494.
Answer in µg/mL, number only, no unit symbol.

CN(C)[C@@H]1C(O)=C(C(N)=O)C(=O)[C@@]2(O)C(O)=C3C(=O)c4c(O)ccc(-n5ccc(C#N)c5)c4C[C@H]3C[C@@H]12	8
CN(C)CC(=O)Nc1cc(-n2ccc(C=O)c2)c2c(c1O)C(=O)C1=C(O)[C@]3(O)C(=O)C(C(N)=O)=C(O)[C@@H](N(C)C)[C@@H]3C[C@@H]1C2	0.25
CN(C)c1ccc(O)c2c1C[C@H]1C[C@H]3[C@H](N(C)C)C(=O)C(C(N)=O)=C(O)[C@@]3(O)C(=O)C1=C2O	32
CN(C)c1cc(NC(=O)CNC(C)(C)C)c(O)c2c1C[C@H]1C[C@H]3[C@H](N(C)C)C(O)=C(C(N)=O)C(=O)[C@@]3(O)C(O)=C1C2=O	0.5

Now turn to the next compound.
Find MIC for `CN(C)[C@@H]1C(O)=C(C(N)=O)C(=O)[C@@]2(O)C(O)=C3C(=O)c4c(O)ccc(-n5ccc(C=O)c5)c4C[C@H]3C[C@@H]12` on E. faecium 494 and write it down.
32

###

Reported MIC, H. influenzae ATCC 4927.
Unit µg/mL implied. Number only.

CN(C)[C@@H]1C(O)=C(C(N)=O)C(=O)[C@@]2(O)C(O)=C3C(=O)c4c(O)ccc(-n5ccc(C=O)c5)c4C[C@H]3C[C@@H]12	1

// next item, MIC requested
Find the measured MIC of `CN(C)CC(=O)Nc1cc(-n2ccc(C=O)c2)c2c(c1O)C(=O)C1=C(O)[C@]3(O)C(=O)C(C(N)=O)=C(O)[C@@H](N(C)C)[C@@H]3C[C@@H]1C2` with H. influenzae ATCC 4927 as test system.
1

###

tested on: H. influenzae ATCC 4927
MIC listing for selected compounds.
The reply should be a number in mg/L, with the unit left off.

Known results for compounds:
CN(C)[C@@H]1C(O)=C(C(N)=O)C(=O)[C@@]2(O)C(O)=C3C(=O)c4c(O)ccc(-n5ccc(C#N)c5)c4C[C@H]3C[C@@H]12	0.5
CN(C)c1cc(NC(=O)CNC(C)(C)C)c(O)c2c1C[C@H]1C[C@H]3[C@H](N(C)C)C(O)=C(C(N)=O)C(=O)[C@@]3(O)C(O)=C1C2=O	1

Report value only: MIC, H. influenzae ATCC 4927, `CN(C)c1ccc(O)c2c1C[C@H]1C[C@H]3[C@H](N(C)C)C(=O)C(C(N)=O)=C(O)[C@@]3(O)C(=O)C1=C2O`
0.5
